- System: MDA-MB-231 (breast)
- testName: In vitro cytotoxic activity (MTT) assay, MDA-MB-231
- Type: cell-based
- details: Homo sapiens; MDA-MB-231 (breast) cells, exposed for 96 hours; read-out: IC50, 50% inhibition of cell proliferation
- Protocol: Compounds 1-15 were screened for their in vitro cytotoxic activity utilizing a 3-(4,5-dimethyl-thiazol-2-yl)-2,5-diphenyltetrazolium bromide (MTT) assay against selected cancer human cell lines consisting of PC3 (prostate). HCT116 (colon), A375 (melanoma), H1299 (lung). MIAPaCa-2 (pancreas), HL60 (leukemia). […] After removal of supernatant, formazan crystals were dissolved in isopropanol and the optical density was measured at 570 nm. […]
measurementLabel: IC50 (µM)
Give a bare numeral; the unit µM is implied.

Consider the molecule O=C(O)c1ccc2c(c1)c(Nc1cccc(Cl)c1)nc1[nH]c3ccncc3c12 [Compound 1] . State its measured IC50.
4.4

----------
- System: H1299 (lung)
- testName: In vitro cytotoxic activity (MTT) assay, H1299
- Type: cell-based
- details: Homo sapiens, NCI-H1299; H1299 (lung) cells, exposed for 96 hours; read-out: IC50, 50% inhibition of cell proliferation
- Description: Compounds 1-15 were screened for their in vitro cytotoxic activity utilizing a 3-(4,5-dimethyl-thiazol-2-yl)-2,5-diphenyltetrazolium bromide (MTT) assay against selected cancer human cell lines consisting of PC3 (prostate). HCT116 (colon), A375 (melanoma), H1299 (lung). MIAPaCa-2 (pancreas), HL60 (leukemia). […] After removal of supernatant, formazan crystals were dissolved in isopropanol and the optical density was measured at 570 nm. […]
measurementLabel: pIC50
By convention, pIC50 is the negative base-10 log of a molar concentration.

Please indicate pIC50 recorded for "O=C(O)c1ccc2c(c1)c(Nc1cccc(Cl)c1)nc1[nH]c3ccncc3c12"
6.05

----------
- experimentalSystem: recombinant human CK2 (RRββ-holoenzyme) (Homo sapiens, UniProt P68400)
- Sequence (P68400 whole entry): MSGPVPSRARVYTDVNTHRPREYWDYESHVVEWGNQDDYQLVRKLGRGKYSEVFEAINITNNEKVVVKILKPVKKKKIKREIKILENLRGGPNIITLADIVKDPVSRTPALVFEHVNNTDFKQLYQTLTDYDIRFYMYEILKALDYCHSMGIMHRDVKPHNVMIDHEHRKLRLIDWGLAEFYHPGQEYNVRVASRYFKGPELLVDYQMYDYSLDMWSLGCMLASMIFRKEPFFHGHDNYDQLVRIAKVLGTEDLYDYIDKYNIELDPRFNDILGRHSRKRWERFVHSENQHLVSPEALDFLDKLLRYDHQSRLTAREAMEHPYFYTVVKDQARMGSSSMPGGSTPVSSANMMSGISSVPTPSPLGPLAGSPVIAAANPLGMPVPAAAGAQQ
- Sequence (P67870 whole entry partner): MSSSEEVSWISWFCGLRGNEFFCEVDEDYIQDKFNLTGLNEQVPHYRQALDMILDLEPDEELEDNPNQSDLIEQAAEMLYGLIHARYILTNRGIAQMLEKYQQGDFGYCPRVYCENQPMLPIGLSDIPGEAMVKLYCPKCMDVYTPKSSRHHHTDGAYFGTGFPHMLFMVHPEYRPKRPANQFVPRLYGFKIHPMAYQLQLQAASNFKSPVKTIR
- testName: CK2 Kinase Assay
- details: final ATP concentration 15 μM, 10 min at 30° C.; read-out: IC50 protein kinase CK2 activity
measurementLabel: IC50 (nM)
Numbers only; they are read as nM.

In one line, give reported IC50 of the entry "O=C(O)c1ccc2c(c1)c(Nc1cccc(Cl)c1)nc1[nH]c3ccncc3c12" .
86
